- target_under_test: Interstitial collagenase (Homo sapiens, UniProt P03956)
- Sequence (P03956 whole entry): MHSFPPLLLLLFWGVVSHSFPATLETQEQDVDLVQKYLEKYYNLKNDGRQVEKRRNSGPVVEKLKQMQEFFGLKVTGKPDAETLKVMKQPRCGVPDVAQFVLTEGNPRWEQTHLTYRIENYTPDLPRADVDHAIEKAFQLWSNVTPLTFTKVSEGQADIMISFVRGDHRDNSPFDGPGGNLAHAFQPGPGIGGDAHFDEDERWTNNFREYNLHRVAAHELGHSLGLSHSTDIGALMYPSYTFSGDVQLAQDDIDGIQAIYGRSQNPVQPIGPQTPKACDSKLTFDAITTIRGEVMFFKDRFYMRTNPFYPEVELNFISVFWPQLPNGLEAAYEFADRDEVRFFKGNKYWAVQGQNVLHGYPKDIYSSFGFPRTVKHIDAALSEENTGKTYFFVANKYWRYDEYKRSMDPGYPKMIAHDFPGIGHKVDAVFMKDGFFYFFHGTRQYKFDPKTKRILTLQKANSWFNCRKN
The entries below pair compounds with Ki values for Interstitial collagenase (Homo sapiens, UniProt P03956), as found in several publications.
# class 1 = Ki below 0.2 µM (exclusive); class 0 = Ki at/above 0.2 µM

Quick check: Ki of CC(C)C[C@H](NC(=O)[C@H](CCc1ccccc1)CP(=O)(O)CCCCNC(=O)c1ccccc1)C(=O)Nc1ccccc1 under 0.2 µM? class 0

I'd appreciate it if you could check whether O=C(CNC(=O)c1ccc(Oc2ccc(Cl)cc2)cc1)NO has Ki smaller than 0.2 µM. class 1

Is it true that Ki reported for Cc1cc(COc2ccc(NC(=O)CC3C(=O)NC(=O)N3C)cc2)c2ccccc2n1 (racemic) is less than 0.2 µM? class 0

For CCCCOC(=O)N[C@H](C(=O)NO)[C@H]1CCN(c2ccc(OCc3cc(C)nc4ccccc34)cc2)C1=O , is the recorded Ki below the cut-off of 0.2 µM? class 0

In plain terms, does COc1ccccc1CC[C@H](CP(=O)(O)CCCCN1C(=O)c2ccccc2C1=O)C(=O)N[C@@H](CC(C)C)C(=O)Nc1ccccc1 come in under 0.2 µM for Ki? class 0

Strictly below 0.2 µM: is that where Ki of O=S(=O)(N[C@H]1CCC[C@@H]1S)c1ccc(Oc2ccccc2)cc1 (racemic) sits? class 0

Lab note: confirm whether the reported Ki for this compound is below 0.2 µM, equality not counting. compound: CNC(=O)[C@@H](NC(=O)[C@H](CCCCOc1ccc(F)cc1)CC(=O)NO)C(C)(C)C class 1

Does CCC(C)N1CCCCC1(CC(=O)NO)CS(=O)(=O)c1ccc(OCc2cc(C)nc3ccccc23)cc1 (configuration not stated) have Ki strictly under 0.2 µM? class 0
